# targetSystem: pooled human IgG (human IgG1,2,3 and 4)
measurementName: Enzyme activity endpoint: Fc (ng/µL)
Form entry: value (ng/µL) — number only.

-- ask Which Enzyme activity endpoint: Fc is reported for this protein? PRT-557 (protein) MANQEIRYSEEDGKTITSVWTKGVTPPTDFQKNEDVYHAPYVANQGWYDITKTFNGKDDLLCGAATAGNMLHWWFDQNKEEIERYLKKHPEKQKINFNGEQMFDVKEAIDTKDSQTDSALFEYFKDKAFPYLSTKHLGVFPDHVIDMFINGYRLSLTNHGPTPVKDGTKDPRGGIFDAVFTRGDQTKLLTERHDFKEKTLNEISDLIKQELQEGKALGLSHTYANVRINHVINLWGADFDSEGNLEAIYVTDSDSNASIGMKKYYVGVNSAGKVAISAKEIEDDNIGAQVLGLFTLSTGKDIWEQTNLEHHHHHH
-- reply 410

More entries:
-- ask So what does the record say about Enzyme activity endpoint: Fc for PRT-628 (protein) MQITSVWTKGVTPLTPEQFRYNNEDVIHAPYLAHQGWYDITKAFDGKDNLLCGAATAGNMLHWWFDQNKEEIEAYLKKHPEKQKIIFNNQELFDLKAAIDTKDSQTNSQLFNYFRDKAFPNLSARQLGVMPDLVLDMFINGYYLNVFKTQSTDVNRPYQDKDKRGGIFDAVFTRGDQTTLLTARHDLKNKGLNDISTIIKQELTEGRALALSHTYANVSISHVINLWGADFNAEGNLEAIYVTDSDANASIGMKKYFVGINAHGHVAISAKKIEGENIGAQVLGLFTLSSGQDIWQQLSLEHHHHHH ?
-- reply 465
